# experiment description: Plasma concentration in patient with severe malaria at 6 g, iv for 30 mins via infusion pump
# Type: ADME, organism-based
# condition description: human
quantity: concentration at 0.5 h (µM)
Give bare numbers, in µM.

// fetch concentration at 0.5 h given entry N=C(N)NCCC[C@H](N)C(=O)O
809

* * *

# Test system: Homo sapiens
# experiment description: Toxicity in patient with severe malaria assessed as decrease of diastolic blood pressure at 12 g, iv for 30 mins via infusion pump
# Assay type: organism-based, Artery
# condition description: in vivo, 0.5 h
quantity: Activity (mmHg)
Give bare numbers, in mmHg.

Report Activity, nothing else, for this molecule: N=C(N)NCCC[C@H](N)C(=O)O [ARGININE]
5
